Biological target: 5-hydroxytryptamine receptor 2A (Homo sapiens)
Sequence (P28223 whole entry): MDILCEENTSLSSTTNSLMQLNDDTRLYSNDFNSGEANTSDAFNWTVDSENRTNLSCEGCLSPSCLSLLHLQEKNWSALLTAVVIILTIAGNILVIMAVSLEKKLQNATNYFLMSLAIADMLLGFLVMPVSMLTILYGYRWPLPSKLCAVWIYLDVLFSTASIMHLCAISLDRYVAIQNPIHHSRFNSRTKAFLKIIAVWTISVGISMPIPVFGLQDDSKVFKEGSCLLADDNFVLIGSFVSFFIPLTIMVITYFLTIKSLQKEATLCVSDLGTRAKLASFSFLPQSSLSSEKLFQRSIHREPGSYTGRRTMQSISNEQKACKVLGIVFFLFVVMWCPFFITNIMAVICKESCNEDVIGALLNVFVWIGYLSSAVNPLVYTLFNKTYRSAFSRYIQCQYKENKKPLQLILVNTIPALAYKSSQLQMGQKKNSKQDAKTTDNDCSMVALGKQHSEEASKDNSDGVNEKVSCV
Test: Binding affinity to human 5HT2A receptor
Measured log10(Ki), listed per entry for reference.
Assay Endpoint: log10(Ki) (log10 of the value in µM)

- O=C(NCCC(O)CN1CCN(c2cccc(Cl)c2Cl)CC1)c1ccc(-c2ccccn2)cc1 (stereo not drawn): -1.37
- O=C(NC/C=C/CN1CCN(c2cccc(Cl)c2Cl)CC1)c1ccc(-c2cccc(=O)[nH]2)cc1: -1.81
- O=C(NCCCCN1CCN(c2cccc(Cl)c2Cl)CC1)c1ccc(-c2ccccn2)cc1: -1.64
- O=C(NC/C=C/C[N+]1([O-])CCN(c2cccc(Cl)c2Cl)CC1)c1ccc(-c2ccccn2)cc1: -0.98
- COc1ccccc1N1CCN(CCCCNC(=O)c2ccc3c(c2)Cc2ccccc2-3)CC1: -0.81
- O=C(NC/C=C/CN1CCN(c2cccc(Cl)c2Cl)CC1)c1ccc(-c2ccccn2)cc1: -1.20
- O=C(NCCC(O)CN1CCN(c2cccc(Cl)c2Cl)CC1)c1ccc2c(c1)Cc1ccccc1-2 (stereo not drawn): -0.26
- O=C(NC[C@H]1C[C@H]1CN1CCN(c2cccc(Cl)c2Cl)CC1)c1ccc(-c2ccccn2)cc1 (relative stereo): -0.05
